test system: RMI core complex (RMI1/RMI2) binding to FANCM MM2 peptide, human; experiment: disruptors of RMI1/RMI2 association with MM2 peptide – biochemical, fluorescence polarization, human, primary screen (AID 1159607); settings: RMI core complex with F-MM2 peptide, at 33 µM, active compounds read low
Screen size: about 70,000 compounds; about 400 (0.57%) were called active. Only a selection was taken, and actives are over-represented in it overall.
Labelling: FP signal (polarization) reported below 60 becomes MET; at or above becomes NOT MET.

Dear reviewer, please state whether "CC1=NN(c2ccccc2)C(=O)C1=Cc1c(C)[nH]n(-c2ccccc2)c1=O" has FP signal (polarization) strictly beneath 60. MET

Dear reviewer, please state whether "COc1ccccc1CCNC(=O)CSc1nnc2ccc(-c3cccnc3)nn12" has FP signal (polarization) strictly beneath 60. MET

Dear reviewer, please state whether "CN(C)c1ccc(CCCNC(=O)COc2ccc(Cl)cc2)cc1" has FP signal (polarization) strictly beneath 60. NOT MET

Dear reviewer, please state whether "CC(C)CCN1C(=O)C(C)(C)COc2ccc(NC(=O)Cc3ccc(F)cc3)cc21" has FP signal (polarization) strictly beneath 60. NOT MET

Dear reviewer, please state whether "COc1ccc(S(=O)(=O)CC(=O)Nc2cc(C)nn2-c2nc3ccccc3s2)cc1" has FP signal (polarization) strictly beneath 60. NOT MET

Dear reviewer, please state whether "Cc1c(/C=N\Nc2ccc([N+](=O)[O-])cc2)sc2ccccc12" has FP signal (polarization) strictly beneath 60. NOT MET

Dear reviewer, please state whether "COc1ccc(-c2nnc(NC(=O)c3cc(Cl)sc3Cl)o2)c(OC)c1" has FP signal (polarization) strictly beneath 60. NOT MET

Dear reviewer, please state whether "N/C(CS(=O)(=O)c1ccc(Cl)cc1)=N/O" has FP signal (polarization) strictly beneath 60. MET

Dear reviewer, please state whether "O=C(Nc1ccc(OC(F)(F)F)cc1)c1cnc2sccn2c1=O" has FP signal (polarization) strictly beneath 60. NOT MET
